- PROTOCOL DETAILS: folding stability dG unfold from chymotrypsin proteolysis; higher = more stable
Label t when folding stability dG unfold >= 0.8 kcal/mol; otherwise f.

Has SAGGSAGGSAGGMYVAVVTRPDGSRLVVETEPGEEIELFTEDGRPLGITAVAPVDEEAFSAGGSAGGSAGGS [r10_422_TrMRF] a recorded folding stability dG unfold greater than or equal to 0.8 kcal/mol?
f

Entry to check: SAGGSAMKVYKIKLEFENEETGKRVEIEAEVVEVDGELYLVMKAKVVDEETGEEKEIEIVIKLPKESAGGSA [r15_960_TrROS_Hall]
t

Entry to check: SAGDLGEEALKDITENSTPVSPNETRTTTAVIKYKDKLVKITTTVKVPPESGTTVLSTPIEIFSPEELKSAG [r5_96_JUSTAS]
f

Entry to check: SAGGSAGGSASVEEIADKIQQLHGVDVEVTEPQPNSNGYPRWRIKVDLKGLPEKWMQELLNSAGGSAGGSAG [r3_40_TrROS]
f

Entry to check: SAGPPKTRTVMFPPEDIPKILEELKKLPPDITIHFPDPDPGNWFMIEVTDDEIKIENPGNGEERTIPISAGG [r19_154_TrROS]
f

Entry to check: SEEVEIEIRIRVEVDSLEEARALAEALEELGFEVEVKVVERDGKLVVEVTIRIRVPAPPPPPLSEEELKASA [r9_863_TrROS_Hall]
t

Entry to check: SAKIEVYELPDGSKEIVFEFGDKVIRVTFFPDYPLAVVEVFDPPKDEVVKTIPVRADDLEDTIKKILEESAG [r14_583_TrMRF]
t

Entry to check: SAGGSAGGSAWIVIPAEDIKENLDEIEFRNGDGQEYRIKVDVQEHGDRPYVMIDIVPPGQPISAGGSAGGSA [r18_447_TrROS]
t

Entry to check: SAGGSTVTFSSEEEIAKLKPVLKKGNPTTLYLNEVRERLLPNGEPVLVPRDVTRTITLVNGKLTESETSAGG [r13_835_JUSTAS]
f

Entry to check: SAGGMLTYTTEYDPRGVLTVREYDPSTSKPISTHIIELGPEPVPPPVPGFPQVTPSGELRLVEDPAGPSAGG [r13_9_JUSTAS]
f

Entry to check: SAGGSAGGRIPLEDIEIVEVSEETLPNTEKVYHVLVKLPEGYIEATFLPNTGLEEAVERLLALESAGGSAGG [r6_232_TrMRF]
f

Entry to check: SAGGSAGGSAGNWKIKNIEPVRLPNNVHIMKFQIPGRSLIFVFDPKNGQKRWIPLKDIKPSAGGSAGGSAGG [r17_286_TrROS]
f

Entry to check: SWKIKISIERTGDWITVKIWYDNPSELRNAIEMIAEKLGMKVEIDDVSWKRDPNGWYEATITVRIKPGMPSA [r9_102_TrROS]
t

---

- PROTOCOL DETAILS: folding stability dG unfold from chymotrypsin proteolysis; higher = more stable
Label condition met when folding stability dG unfold >= 3 kcal/mol; otherwise condition not met.

Has SAGGSAGGSAGGSMIIRIETKDGKIIEIEIKEDEDKTPEEIAKELAKKYNIKKIEIFEPSAGGSAGGSAGGS [r4_116_TrROS_Hall] a recorded folding stability dG unfold greater than or equal to 3 kcal/mol?
condition met

Entry to check: SAGMTVTFTLDFPANGGPITITVYHGDKAEEITVPKNETVTITVDLDPNDGLTIRAHYPDGSYVEFPIGSAG [r5_187_TrMRF]
condition met

Entry to check: SAGGEAEVVEPEEKLEIVDKETGKKITVYKVKNKETGEEVVLVEIEKNGKKYTVLMTKDELEALLKKSAGGS [r16_603_TrROS_Hall]
condition met

Entry to check: SAGGLPELLKALGLPVTSVRSVPVLLPGGRPALVTFVEFEDPEGERYRLVVVRLPNGEVLVRVERLDPSAGG [r13_818_TrMRF]
condition met

Entry to check: SAGGSAALELVEEVSEFYDPNTGKKTTLVVARKDGKPILILIPPSGATVYDASNGNKLFEIPPELLSAGGSA [r15_85_JUSTAS]
condition not met

Entry to check: SAGGMEVREIDVENEDGHNVKIEIWWMPGEGWIMVKIEGPNPALIDDIQKEIGLPILEVMKDGYLMIKSAGG [r13_937_TrROS]
condition not met

Entry to check: SAGGSASPAVSSEEEVEALVEELRKKGYEVLSVERTEIPGEDVTDYTIPIRDPSNGKLSTLTLTAGSAGGSA [r15_123_JUSTAS]
condition not met

---

Give folding stability dG unfold for every item shown.
- PROTOCOL DETAILS: folding stability dG unfold (combined trypsin and chymotrypsin); higher = more stable
Reply numerically in kcal/mol, unit not repeated.

Given SAELKISKIDVSSLPDGSKKVTVNFSAPNFKVTITLDKSGNVSVEVSPEARKLPPEFFNLILNLAKELGSAG [r14_555_TrMRF] , state its recorded folding stability dG unfold.
3.96

Entry to check: SAGGSMSPALNKKLDVEEITADEEEAKKIAKESKKPVIVTLPDGTVLRFNTDGSVTEYPLPPPELLSAGGSA [r2_34_JUSTAS]
0.958

Entry to check: SAGGATITVEPAPGDSVVALAEFGDSLALVTFYPKEATAKVTVFGPNGIPSTATFTIKPGEELVITGSAGGS [r8_11_TrMRF]
1.47

Entry to check: MKPGETKTLTLTIVDEETGETYTVKVTVTYDEDTGVVTIKAEITYPDGRKFTVTARFNRETGELTEISIEPS [r1_144_TrROS_Hall]
4.32

Entry to check: SAGGSAGGSASLDLSNATVLEEKTDPAKGLKTLTIKTPTSTLTITVEFDENGNPVKMTVFESAGGSAGGSAG [r3_5_JUSTAS]
2.03

Entry to check: SALIETAEELARELGVEAELVEIEEGEDVALLRIRLRVDGVPYYFLVRIERPGEDPRIFRVEILEVRPESAG [r14_387_TrMRF]
4.07

Entry to check: SAGGSAGGSATKTIKVKNADGETVELTVEKREDGSYKITLTFPDGTKKTFTIKPGEKIVIKPSAGGSAGGSA [r18_115_TrROS_Hall]
3.9

---

Give folding stability dG unfold for every item shown.
- PROTOCOL DETAILS: folding stability dG unfold (combined trypsin and chymotrypsin); higher = more stable
Reply numerically in kcal/mol, unit not repeated.

Given SAGGEKVKLRIYVYRRTVERDPATGELRERYELVEEIEIEVEPGETLEDILAKLKLPPGWRIVRVERESAGG [r13_716_TrROS_Hall] , state its recorded folding stability dG unfold.
5.24

Entry to check: SAGKKKIKIKLENGETKTLEIKPGETVEITFPNGLKATITKVKDGKIEIKVKEVYVKDKNGKWKKLKDLSAG [r5_417_TrROS_Hall]
2.29

Entry to check: SAGGSAGGSMKIYEVPPEVAENMSLEEIIESLVLPGYPAKAEAFEDEGPGYVLVDLFLPPELGSAGGSAGGS [r12_716_TrMRF]
0.842

Entry to check: TPLTTSTTTVPPSEIATPVTFNAPLSPDTSVTITTYDSATGTTSPVFSTTSASVTLTDLPNVSTATVVVVSS [r1_224_JUSTAS]
0.459

Entry to check: SAGGSAGGSAGMTPVEITDPNSDKTYTYDPEKKTLTKYYPGEGKTETFPLTSEEEAKKLLSAGGSAGGSAGG [r11_936_JUSTAS]
0.127

Entry to check: TTKTYTTPVIKKMTVTFDKTEGNEATLTITATLPDGTPVTLPFPLTLETGKLDPAVVEAAIKAAVATAIAQS [r1_124_JUSTAS]
1.23

Entry to check: SAGGSAGGSAPPWTRVLGLGTFPPGVPDLPVEVPGGNVYALFTPTEDGSVQVLIVDLIPPLSAGGSAGGSAG [r3_464_TrMRF]
0.773

Entry to check: SAGGSALDPDDLEKVTIEFMFYNPNGNLLYEMTLEIYPDDGVIKMEHKQRRPGEPQKVTMEFPFDPSAGGSA [r15_278_TrROS]
1.73

Entry to check: SAGGSAGSFVNLGPEESEGVIVVTYYNEDGTTTTATYTYFPSPKTVSSNGPVTVPPNYKLSVSPLLSAGGSA [r15_198_JUSTAS]
0.818

Entry to check: SLDPGEPVYRIKVKIEMWNPNGKPIAEFTIPIRTLEEAKEAIKEMAREIAEKMGHPDMPIRIKDIEIEPYSA [r9_376_TrROS]
2.27

Entry to check: SAGGSAGGSKPNEIKIKKIKIEVKIKKKKVDKEKGEEIYEIEEVKIEIEEITLSKEELEKLLKSAGGSAGGS [r12_723_TrROS_Hall]
1.94

---

- PROTOCOL DETAILS: folding stability dG unfold from chymotrypsin proteolysis; higher = more stable
Label rule met when folding stability dG unfold >= 0.7 kcal/mol; otherwise rule not met.

Has SAGGSAGGSASLSLDQVGTVTFPANGAPALVTRLPDGSVALYFPATGRVLYLDGPNDVTPDSAGGSAGGSAG [r3_96_TrMRF] a recorded folding stability dG unfold greater than or equal to 0.7 kcal/mol?
rule met

Entry to check: SAGGNIKVRREPRPNGQYRVKITIPDPDGKPIEIEYRMPPGMDSPEQAQKEAIEVVKEFAKKHNIKISAGGS [r8_464_TrROS]
rule met

Entry to check: SAKIRIPLEKLIDLAESIPGVEVLYDPETGLLLAFIPEIGMLILIRLEEDPEDPDNVEVDIEIIPLSPFSAG [r14_604_TrMRF]
rule met

Entry to check: SAGGSAGGSAWRLYIGGQKIEIPPGGPVKLERHKNGWVKIEIKMPGGRKKEFTIPIPPGATSAGGSAGGSAG [r3_207_TrROS]
rule met

Entry to check: SAGMNLKIEVSVTPQEFELVEKDEEGNLIKPVKQKATVVTTTTTLPDGTVTTTRSLFLDGELVATSTGSAGG [r19_44_JUSTAS]
rule met

Entry to check: SAGGSAGGSAGIKIPPGQKLSIEENPDGNMEIKFPDPGQKFTIPPNAPIEVDPNNWIYIKSAGGSAGGSAGG [r17_49_TrROS]
rule not met

Entry to check: SMPEIKVEKKNGKLTITVPKGAKIKIKIEVNGKKIEKEVEVKEGETVTITIELPPNMPKDVKIKEIEIEKSA [r9_1152_TrROS_Hall]
rule met

Entry to check: SAGGSAGGSAGSVTVTLSSDPDKTFTVTLPGGETVTFQPTPTNQVTVTVTSPTTPVTVTVSSAGGSAGGSAG [r3_334_JUSTAS]
rule not met

Entry to check: SAGGSAGGSGEYVVVLLREELPDEERYLRRPVPLDAALEALKEGKLVRSSEGREWRFAEYRPESAGGSAGGS [r12_432_TrMRF]
rule not met

Entry to check: SAGGMMKLNPKTLETKTTTVPLPDGSTVTLTTKLVELKFPNGEVELVTLTVETFPSEPTLTVLEEKPLSAGG [r19_158_JUSTAS]
rule not met

Entry to check: SAGSGVILRTPEGKYVPLSALSEEEIKTAIEDPLSPAPPVTVEVTVTSVRLPVPRTVTTTEVVVTVLGSAGG [r19_232_JUSTAS]
rule not met

Entry to check: MEIKKIELKVEEKDGKLVLTVKIEVFDKNGKLVKKVEIKLEVPKELKEGQSLEELPLSEELRKLVKELLEKS [r1_354_TrROS_Hall]
rule met

Entry to check: SAGGSAGGSGMMLKIEIPVEDPGSEEKAKKIAEELAKKLGLSPKEVKIKIKVIPKLPPEEILNSAGGSAGGS [r12_1066_JUSTAS]
rule not met

Entry to check: SKKPDQPPKTVPIEIWVPLPPGQTPEWREMAEEFAEIFADELQQEGFKNVTVEVEPNKDGWVHIDAEVQVSA [r9_865_TrROS]
rule not met

Measured values drawn from the supplement of paper PMC12764529 for this set.
